Where do these numbers come from? They come from ChEMBL document CHEMBL5291721.

Reported AC50 for target or system D(3) dopamine receptor (Homo sapiens, UniProt P35462), by entry. Further: assay procedure not described here.

Field: example entries. Status: answers known.
compound | AC50
CCN(CC)CCNc1ccc(CO)c2sc3ccccc3c(=O)c12 | 19.5 µM
COc1cc2nc(N3CCN(C(=O)c4ccco4)CC3)nc(N)c2cc1OC | > 30 µM
NNc1nnc(NN)c2ccccc12 [DIHYDRALAZINE] | > 30 µM
CCC(CC)(CC(=O)Nc1cccc(/C=C/c2nc(C3CCC3)cs2)c1)C(=O)O | > 30 µM
N=c1ccn2c(n1)O[C@H]1[C@H](O)[C@@H](CO)O[C@H]12 | > 30 µM

Return reported AC50 values for all items listed beneath this line.
1. Clc1ccc(C(OCCN2CCCCC2)c2ccccc2)cc1 (stereo not drawn)
2. CC[C@H]1CN2CC[C@H]1C[C@H]2[C@H](O)c1ccnc2ccc(OC)cc12 [HYDROQUININE]
3. COCc1c(C(C)C)nc(C(C)C)c(/C=C/[C@@H](O)C[C@@H](O)CC(=O)O)c1-c1ccc(F)cc1
4. CS(=O)(=O)c1ccc(C2=C(c3ccccc3)C(=O)OC2)cc1
5. CCC(C)(C)c1ccc(CC(C)CN2C[C@@H](C)O[C@@H](C)C2)cc1 (stereo partly drawn)
6. CN(C)CC/C=C1/c2ccccc2Sc2ccc(Cl)cc21

1: 1.05 µM; 2: > 30 µM; 3: > 30 µM; 4: > 30 µM; 5: 22 µM; 6: 0.003 µM

Return reported AC50 values for all items listed beneath this line.
1. O=C(Nc1ccc(Cl)cc1)Nc1ccc(Cl)c(Cl)c1
2. COC(c1ccccc1)(c1ccccc1)[C@H](Oc1nc(C)cc(C)n1)C(=O)O
3. CCCNC(C)C(=O)Nc1c(C)csc1C(=O)OC (stereo not drawn)
4. COc1cc([C@@H]2c3cc4c(cc3[C@H](O)[C@H]3COC(=O)[C@H]23)OCO4)cc(OC)c1OC

1. > 30 µM
2. > 30 µM
3. > 30 µM
4. > 30 µM

---

Reported AC50 for target or system Adenosine receptor A2a (Homo sapiens), by entry. Further: assay procedure not described here.

Return reported AC50 values for all items listed beneath this line.
1. CS(=O)(=O)c1ccc(C2=C(c3ccccc3)C(=O)OC2)cc1
2. Nc1nc(NC2CC2)c2ncn([C@H]3C=C[C@@H](CO)C3)c2n1
3. CC(=O)OCC(=O)[C@@]12N=C(C)O[C@@H]1C[C@H]1[C@@H]3CCC4=CC(=O)C=C[C@]4(C)[C@H]3[C@@H](O)C[C@@]12C

1: > 30 µM; 2: > 30 µM; 3: > 30 µM

Return reported AC50 values for all items listed beneath this line.
1. CNS(=O)(=O)Cc1ccc2[nH]cc(CCN(C)C)c2c1
2. COc1cc2nc(N(C)CCCNC(=O)C3CCCO3)nc(N)c2cc1OC (stereo not drawn)

1. > 30 µM
2. > 30 µM

Return reported AC50 values for all items listed beneath this line.
1. Fc1ccc(C(c2ccccc2)(c2ccccc2F)n2ccnc2)cc1 (stereo not drawn)
2. CC(C)OC(=O)CCC/C=C\C[C@@H]1[C@@H](CC[C@@H](O)CCc2ccccc2)[C@H](O)C[C@@H]1O
3. CN(C)CCC(c1ccc(Cl)cc1)c1ccccn1 (stereo not drawn)

1. > 30 µM
2. > 30 µM
3. > 30 µM

---

biological target: Alpha-1A adrenergic receptor (Homo sapiens); type: functional, cell-based; further: assay procedure not described here
Sequence (P35348 whole entry): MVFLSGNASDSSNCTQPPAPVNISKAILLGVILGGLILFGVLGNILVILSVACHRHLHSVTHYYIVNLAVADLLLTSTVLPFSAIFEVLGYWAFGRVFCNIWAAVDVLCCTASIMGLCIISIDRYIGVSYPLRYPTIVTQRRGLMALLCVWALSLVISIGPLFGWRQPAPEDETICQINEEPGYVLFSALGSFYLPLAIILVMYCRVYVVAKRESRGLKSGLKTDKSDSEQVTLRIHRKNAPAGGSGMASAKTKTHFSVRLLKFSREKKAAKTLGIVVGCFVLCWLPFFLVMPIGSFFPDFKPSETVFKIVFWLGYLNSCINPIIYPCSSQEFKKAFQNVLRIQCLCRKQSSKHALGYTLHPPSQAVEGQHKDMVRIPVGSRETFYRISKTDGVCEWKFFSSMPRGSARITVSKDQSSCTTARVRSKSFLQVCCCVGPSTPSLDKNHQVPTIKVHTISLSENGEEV
Hi there, I'd appreciate the recorded AC50 for every entry that follows.

Return reported AC50 values for all items listed beneath this line.
1. CNC1Cc2ccccc2N(C)c2ccccc21 (stereo unspecified) [METAPRAMINE]
2. NCC(=O)CCC(=O)O [AMINOLEVULINIC ACID]
3. C[C@]12CCC(=O)C=C1CC[C@@H]1[C@@H]2[C@@H](O)C[C@@]2(C)[C@H]1CC[C@]2(O)C(=O)CO [HYDROCORTISONE]
4. Cc1cn([C@H]2C=C[C@@H](CO)O2)c(=O)[nH]c1=O [STAVUDINE]
5. CC=CC(=O)N(CC)c1ccccc1C
6. COc1cccc(C2(O)CCCCC2CN(C)C)c1 (stereo unspecified) [TRAMADOL]

["3.4 µM", "> 30 µM", "> 30 µM", "> 30 µM", "> 30 µM", "> 30 µM"]

---

Hi there, I'd appreciate the recorded AC50 for every entry that follows.
target: UniProtKB Q14432; assay type: functional
Sequence (Q14432 whole entry): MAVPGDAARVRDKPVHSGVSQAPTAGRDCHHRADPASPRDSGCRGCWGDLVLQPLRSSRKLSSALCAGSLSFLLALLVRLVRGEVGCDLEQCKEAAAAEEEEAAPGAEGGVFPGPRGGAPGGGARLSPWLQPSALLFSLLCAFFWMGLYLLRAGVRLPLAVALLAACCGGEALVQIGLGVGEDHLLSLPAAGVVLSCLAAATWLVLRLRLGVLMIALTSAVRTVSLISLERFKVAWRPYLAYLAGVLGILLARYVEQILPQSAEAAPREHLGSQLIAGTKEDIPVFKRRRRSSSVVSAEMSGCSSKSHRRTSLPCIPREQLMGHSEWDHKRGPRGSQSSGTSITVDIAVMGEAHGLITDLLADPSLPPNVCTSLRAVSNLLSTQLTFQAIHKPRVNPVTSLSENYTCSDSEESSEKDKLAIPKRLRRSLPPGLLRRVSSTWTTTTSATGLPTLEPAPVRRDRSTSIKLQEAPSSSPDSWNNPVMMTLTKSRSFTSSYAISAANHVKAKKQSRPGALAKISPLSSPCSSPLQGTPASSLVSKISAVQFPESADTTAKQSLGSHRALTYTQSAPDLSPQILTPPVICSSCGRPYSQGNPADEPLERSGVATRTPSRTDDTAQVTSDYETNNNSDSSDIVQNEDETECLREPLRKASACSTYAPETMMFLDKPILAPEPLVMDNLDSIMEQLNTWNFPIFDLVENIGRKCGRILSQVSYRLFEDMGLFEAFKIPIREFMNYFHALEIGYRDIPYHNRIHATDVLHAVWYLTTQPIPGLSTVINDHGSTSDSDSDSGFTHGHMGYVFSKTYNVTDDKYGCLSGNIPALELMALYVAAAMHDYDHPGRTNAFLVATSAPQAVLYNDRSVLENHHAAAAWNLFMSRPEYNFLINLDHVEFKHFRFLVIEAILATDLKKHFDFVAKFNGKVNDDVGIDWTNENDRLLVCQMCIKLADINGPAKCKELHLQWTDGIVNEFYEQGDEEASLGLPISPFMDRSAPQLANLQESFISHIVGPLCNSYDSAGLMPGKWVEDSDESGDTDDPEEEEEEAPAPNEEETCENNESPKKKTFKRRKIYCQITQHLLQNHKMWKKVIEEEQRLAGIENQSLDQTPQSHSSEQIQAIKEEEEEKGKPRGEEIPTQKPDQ

compound | endpoint_value
CC=CC(=O)N(CC)c1ccccc1C | > 30 µM
C=CCN1CCCC1CNC(=O)c1cc(S(N)(=O)=O)cc(OC)c1OC (stereo not drawn) [VERALIPRIDE] | > 10 µM
COC(=O)[C@H]1[C@H]2C[C@@H]3c4[nH]c5cc(OC)ccc5c4CCN3C[C@H]2C[C@@H](OC(=O)/C=C/c2cc(OC)c(OC)c(OC)c2)[C@@H]1OC | > 30 µM

Return reported AC50 values for all items listed beneath this line.
1. C=CCC1(C(C)CC)C(=O)NC(=O)NC1=O (stereo not drawn)
2. CCCc1nc(C(C)(C)O)c(C(=O)OCc2oc(=O)oc2C)n1Cc1ccc(-c2ccccc2-c2nnn[nH]2)cc1

["> 30 µM", "11 µM"]

Return reported AC50 values for all items listed beneath this line.
1. CC(CC(c1ccccc1)c1ccccc1)NC(C)(C)C (stereo not drawn)
2. C[N+]1(C)CCC(OC(=O)C(O)(c2ccccc2)C2CCCC2)C1 (stereo not drawn) [GLYCOPYRRONIUM BROMIDE]
3. CCN1CCN(C(=O)N[C@@H](C(=O)N[C@@H]2C(=O)N3C(C(=O)O)=C(CSc4nnnn4C)CS[C@H]23)c2ccc(O)cc2)C(=O)C1=O

> 30 µM
> 30 µM
9.5 µM

---

Reported AC50 for target or system Adenosine receptor A1 (Homo sapiens), by entry. Further: assay procedure not described here.

Return reported AC50 values for all items listed beneath this line.
1. CN1CCN(CC/C=C2/c3ccccc3Sc3ccc(S(=O)(=O)N(C)C)cc32)CC1
2. CCOC(=O)[C@H](CCc1ccccc1)N[C@@H](C)C(=O)N1C(=O)N(C)C[C@H]1C(=O)O

["> 30 µM", "> 30 µM"]

Return reported AC50 values for all items listed beneath this line.
1. CN1CCC(=C2c3ccccc3CCc3sccc32)CC1
2. NCC(CC(=O)O)c1ccc(Cl)cc1 (stereo not drawn)
3. C=CCN1CCCC1CNC(=O)c1cc(S(N)(=O)=O)cc(OC)c1OC (stereo not drawn) [VERALIPRIDE]
4. CC(C)OC(=O)CCC/C=C\C[C@@H]1[C@@H](CC[C@@H](O)CCc2ccccc2)[C@H](O)C[C@@H]1O
5. CCOC(=O)[C@H](CCc1ccccc1)N[C@@H](C)C(=O)N1[C@H](C(=O)O)C[C@@H]2CCC[C@@H]21
6. COc1ccc(-c2ccc3cc(C(=O)O)ccc3c2)cc1C12CC3CC(CC(C3)C1)C2
7. CNS(=O)(=O)Cc1ccc2[nH]cc(CCN(C)C)c2c1

["> 30 µM", "> 30 µM", "> 30 µM", "> 30 µM", "> 30 µM", "> 30 µM", "> 30 µM"]

Return reported AC50 values for all items listed beneath this line.
1. Cc1cccc(Nc2ccccc2C(=O)O)c1C
2. CCOc1ccc(Cc2cc([C@@H]3O[C@H](CO)[C@@H](O)[C@H](O)[C@H]3O)ccc2Cl)cc1
3. CC(C(=O)O)c1ccc(N2Cc3ccccc3C2=O)cc1 (stereo not drawn)
4. C[C@@H]1O[C@@H](O[C@@H]2C=C3CC[C@@H]4[C@H](CC[C@]5(C)[C@@H](c6ccc(=O)oc6)CC[C@]45O)[C@@]3(C)CC2)[C@H](O)[C@H](O)[C@H]1O
5. COc1ccc2c3c1O[C@H]1[C@@H](O)C=C[C@H]4[C@@H](C2)N(C)CC[C@@]341
6. O=C1Nc2ccc(Cl)cc2[C@@](C#CC2CC2)(C(F)(F)F)O1
7. C[C@H](CSC(=O)c1ccccc1)C(=O)N1C[C@@H](Sc2ccccc2)C[C@H]1C(=O)O
8. CN(C)CCc1c[nH]c2ccc(C[C@H]3COC(=O)N3)cc12

1: > 10 µM; 2: > 30 µM; 3: > 30 µM; 4: > 30 µM; 5: > 30 µM; 6: > 30 µM; 7: > 10 µM; 8: > 30 µM

Return reported AC50 values for all items listed beneath this line.
1. O=C(OCC(O)CO)c1ccccc1Nc1ccnc2cc(Cl)ccc12 (stereo not drawn)
2. CCC(C)n1ncn(-c2ccc(N3CCN(c4ccc(OCC5COC(Cn6cncn6)(c6ccc(Cl)cc6Cl)O5)cc4)CC3)cc2)c1=O (stereo not drawn)
3. Cn1c(=O)c2c(ncn2CC2OCCO2)n(C)c1=O

1. > 30 µM
2. > 30 µM
3. > 30 µM

Return reported AC50 values for all items listed beneath this line.
1. O=[N+]([O-])O[C@@H]1CO[C@H]2[C@@H]1OC[C@@H]2O [ISOSORBIDE MONONITRATE]
2. Cc1c(OCC(F)(F)F)ccnc1C[S+]([O-])c1nc2ccccc2[nH]1 (stereo not drawn)
3. C=CCc1ccccc1OCC(O)CNC(C)C (stereo not drawn)
4. CCCC(C)C1(CC)C(=O)NC(=O)NC1=O (stereo not drawn)
5. CC[C@H]1CN2CCc3cc(OC)c(OC)cc3[C@@H]2C[C@@H]1C[C@H]1NCCc2cc(OC)c(OC)cc21
6. CN1C(=O)C(O)N=C(c2ccccc2Cl)c2cc(Cl)ccc21 (stereo not drawn)
7. CCCc1nc(C(C)(C)O)c(C(=O)OCc2oc(=O)oc2C)n1Cc1ccc(-c2ccccc2-c2nnn[nH]2)cc1
8. CN(C)CCC=C1c2ccccc2C=Cc2ccccc21

1. > 30 µM
2. 16.8 µM
3. > 30 µM
4. > 10 µM
5. > 30 µM
6. > 30 µM
7. > 50 µM
8. > 30 µM

Return reported AC50 values for all items listed beneath this line.
1. NCC[C@H](O)C(=O)N[C@@H]1C[C@H](N)[C@@H](O[C@H]2O[C@H](CN)[C@@H](O)[C@H](O)[C@H]2O)[C@H](O)[C@H]1O[C@H]1O[C@H](CO)[C@@H](O)[C@H](N)[C@H]1O
2. CC1=C(C(=O)O)N2C(=O)[C@@H](NC(=O)[C@H](N)c3ccccc3)[C@H]2SC1 [CEPHALEXIN ANHYDROUS]
3. CCCCCNC(=N)N/N=C/c1c[nH]c2ccc(OC)cc12
4. CN(C)CCC(c1ccc(Cl)cc1)c1ccccn1 (stereo not drawn)
5. CC(C)(C)c1cc(C(C)(C)C)c(NC(=O)c2c[nH]c3ccccc3c2=O)cc1O

1. > 10 µM
2. > 30 µM
3. > 30 µM
4. > 30 µM
5. > 30 µM
